experiment: Protein binding in human plasma; format: ADME, cell-free; settings: read-out: PPB (converted)
Measured Metric: fraction unbound

>  <Smiles>
Cc1nc2cc(NC(=O)c3cc4sc(N5CCOCC5)nc4s3)ccc2o1

>  <Measured Metric>
fraction unbound

>  <Measurement>
0.012

$$$$
>  <Smiles>
Cc1nc2cc(NC(=O)c3cc4sc(N5CCC(C(=O)N(C)C)CC5)nc4s3)ccc2o1

>  <Measured Metric>
fraction unbound

>  <Measurement>
0.049

$$$$
>  <Smiles>
O=C(Nc1ccc(-c2ccc(F)cn2)cc1)c1cc2sc(NCCN3CCOCC3)nc2s1

>  <Measured Metric>
fraction unbound

>  <Measurement>
0.002

$$$$
